Assay: label from the status in PepcDB records
OBSERVED_PROPERTY: protein production

INSERT INTO results (sequence_content, endpoint_value) VALUES
  ('MNTKKESALSFPSAGIESFGERLKELMGDESLRAFANAIDTSEGGVRKWFTQSTMPSFDKMVRIARRYNVNLEWLCTGEGPKFPGETAAYESVICKTEEFSEEYALIDGYHTQVSTGHGAQWDNERVRRKLAFRSKWLRYRGLQPENLRVVFAKGDSMEPTIHSGDSILVDITDANLSDGSIFVLRIGDDLFAKRVQVHIDGSITIISDNKEYREQRVPVAELGLLSVVGKVVWIGKDVK', 'failed'),
  ('AEGRGKARADSLKAGSQGLSANKRRADGSFESVVASSLRKGDVVRVQAGEMIPGDGEVIEGVAAVNEAAITGESAPVIRESGGDRSAVTGNTQVVSDWLLVRIGANPGESTLDRMIALVEGAKRQKTPNEV', 'failed');

The reported measurements were obtained from a protein production outcome set (Wang et al. 2014).
